Experimental readout: melting point

Prompt: Which melting point value belongs to "CC1(C)OC(c2ccc(S(C)(=O)=O)cc2)=C(c2ccc(O)cc2)C1=O" ?
Response: 150 to 152 °C

Prompt: Again, but for "Cc1ccc(C2=C(c3ccc(S(C)(=O)=O)cc3)OC(C)(C)C2=O)s1"
Response: 141 to 142 °C

Prompt: And then "CCSc1ccc(C2=C(c3ccc(S(N)(=O)=O)cc3)OC(C)(C)C2=O)cc1" , what is it?
Response: 185 °C

====

# key: entry, value: melting point

Example entries and their recorded answers appear below.
{"columns": ["Molecule", "melting point"],
 "data": [
  ["CC1(C)OC(c2ccc(S(C)(=O)=O)cc2)=C(c2ccc(S(C)(=O)=O)cc2)C1=O", "245 to 257 °C"],
  ["CCC1(C)OC(c2ccc(S(N)(=O)=O)cc2)=C(c2ccc(OC)c(F)c2)C1=O (centres unmarked)", "113 to 114 °C"],
  ["CC1(C)OC(c2ccc(S(N)(=O)=O)c(Cl)c2)=C(c2cc(F)cc(F)c2)C1=O", "173 to 174 °C"],
  ["CCC1(C)OC(c2ccc(S(C)(=O)=O)cc2)=C(c2ccc(OC)c(F)c2)C1=O (centres unmarked)", "158 to 160 °C"],
  ["CCC1(C)OC(c2ccc(S(C)(=O)=O)cc2)=C(c2ccc(Cl)c(C(F)(F)F)c2)C1=O (centres unmarked)", "168 to 170 °C"],
  ["CCC1(C)OC(c2ccc(S(C)(=O)=O)cc2)=C(c2cccc(Cl)c2)C1=O (centres unmarked)", "94 to 95 °C"],
  ["CC1(C)OC(c2ccc(S(C)(=O)=O)cc2)=C(c2cccc(Cl)c2)C1=O", "151 to 152 °C"],
  ["CSc1ccc(C2=C(c3ccccc3)C(=O)C(C)(C)O2)cc1", "109 to 110 °C"],
  ["CC1(C)OC(c2ccc(S(N)(=O)=O)cc2)=C(c2ccc3c(c2)OCO3)C1=O", "178 to 179 °C"],
  ["Cc1ccc(F)cc1C1=C(c2ccc(S(C)(=O)=O)cc2)OC(C)(C)C1=O", "159 to 160 °C"]
]}

Prompt: Please report the recorded melting point for "CC1(C)OC(c2ccc(S(C)(=O)=O)cc2)=C(c2cc3ccccc3s2)C1=O" .
Response: 204 to 206 °C

Prompt: Another molecule to look at: "CC1(C)OC(c2ccc(S(N)(=O)=O)c(Cl)c2)=C(c2cccc(F)c2)C1=O"
Response: 149 to 150 °C

Prompt: Now this one: "CC1(C)OC(c2ccc(S(N)(=O)=O)cc2)=C(c2ccc(Cl)c(Cl)c2)C1=O"
Response: 208 to 209 °C

Prompt: Now the same for "CC1(C)OC(c2ccc(S(C)(=O)=O)cc2)=C(c2cc(Cl)cc(Cl)c2)C1=O"
Response: 187 to 188 °C

Prompt: Same thing, different molecule: "CCC1(CC)OC(c2ccc(S(C)(=O)=O)cc2)=C(c2ccccc2)C1=O"
Response: 139 to 140 °C

Prompt: Queued: "Cc1ccc(C2=C(c3ccc(S(C)(=O)=O)cc3)OC(C)(C)C2=O)cc1"
Response: 167 to 168 °C

Prompt: Can you check "CC1(C)OC(c2ccc(S(C)(=O)=O)cc2)=C(c2ccc(C(C)(C)C)cc2)C1=O" next?
Response: 142 to 143 °C
